// Ki lookup, one value per entry
biological target: H. pylori MTAN (Helicobacter pylori, UniProt Q9ZMY2); construct: His6 (N); made in house; host or cells: E. coli BL21 (DE3); test: Ki determination: inhibition of recombinant HpMTAN, xanthine oxidase coupled assay, 5′-methylthioadenosine as substrate; type: biochemical; details: Table 4, Immucillin-A series; read-out: Inhibition of H. pylori MTAN Ki
Sequence (Q9ZMY2 whole entry): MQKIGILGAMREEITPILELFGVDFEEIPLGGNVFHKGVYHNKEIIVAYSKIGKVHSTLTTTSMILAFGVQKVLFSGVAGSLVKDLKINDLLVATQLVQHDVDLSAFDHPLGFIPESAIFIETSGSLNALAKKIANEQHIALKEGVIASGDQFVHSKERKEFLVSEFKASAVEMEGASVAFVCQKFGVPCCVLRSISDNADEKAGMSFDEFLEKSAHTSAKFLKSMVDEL
# output: bare number, implied unit nM

Worked set:
- compound: "CSC[C@H]1NC(c2c[nH]c3c(N)ncnc23)[C@H](O)[C@@H]1O (stereo partly drawn)"
  Ki, nM: 0.98
- compound: "CCCCSC[C@H]1NC(c2c[nH]c3c(N)ncnc23)[C@H](O)[C@@H]1O (stereo partly drawn)"
  Ki, nM: 0.51

Next, consider the following compound.
For the record CCCSC[C@H]1NC(c2c[nH]c3c(N)ncnc23)[C@H](O)[C@@H]1O (stereo partly drawn) , what value of Ki is listed for H. pylori MTAN (Helicobacter pylori, UniProt Q9ZMY2)?
0.6

Where do the numbers come from? From patent US11186575B2.
